This collection of values is drawn from paper PMC8130932.

Biological target: SARS-CoV-2 nucleocapsid, recombinant (SARS-CoV-2, reference sequence, UniProt P0DTC9)
Experiment: ELISA
Exercise: for every item that follows, state its recorded OD450.
Reply numerically in OD450, unit not repeated.

Sample EZ 11A (antibody, V domains shown, source: HEK293T, transfected; culture supernatant or purified) VH: EVQLVESGGGLVQPGGSLRLSCAASGFTFSSYWMSWVRQAPGKGLEWVANIKQDGSEKYYVDSVKGRFTISRDNAKNSLYLQMNSLRAEDTAVYYCARDDYSGSYYWEFDYWGQGTLVTVSS VL: QPVLTQSPSASASLGASVKLTCTLSSGHSSYAIAWHQQQPEKGPRYLMKLNSDGSHSKGDGIPDRFSGSSSGAERYLTISSLQSEDEADYYCQTWGTGIWVFGGGTKLTVL — what was its OD450? 1.29

Can you check EY 2A (antibody, V domains shown, source: HEK293T, transfected; culture supernatant or purified) VH: QVQLVESGAEVTKPGDSLIISCKGSGYAFTQYWIGWVRQKPGKGLEWMAMVYPDSSAVFAGGASGVRYRPPFQGQVTISADTSVNTAYLQWDSLKASDTAMYYCVRQERGSNTWYAGNSWGQGTLVTVSS VL: DIVMTQSPLSLPVSPGEPASISCRSSQSLLHTDAYNYLDWYLQKPGQSPQLLIYLGSTRASGVPDRFSGSGSGTDFTLKISSVKAEDVGVYYCMQALQTPGTFGQGTKLEIK next? 1.28

Can you check FD 6D (antibody, V domains shown, source: HEK293T, transfected; culture supernatant or purified) VH: EVQLVESGPGLVKVSETLFLTCTVSGYSIGSGNYWGWIRQPPGKVLEWIGSTYHSGTTYYNPSLKSRVTISVDSSKNQFSLKLTSVTAADTAVYYCARDRLLAVHYDSRGYLVDYWGQGTMVTVSS VL: AIRMTQSPDSLAVSLGERATINCKSSQSIFYSSNNKNYLAWYQHKPGQPPKLLIYWASTRESGVPDRFSGSGSGTDFTLTISSLQAEDVAIYYCQQYYDIPRTFGQGTKVEIR next? 1.73

Can you check EY 3B (antibody, V domains shown, source: HEK293T, transfected; culture supernatant or purified) VH: EVQLVESGAEVTKPGESLIISCKGSGYAFTQYWIGWVRQKPGKGLEWMAMVYPDSSAVFAGGASGVRYRPPFQGQVTISADTSVNTAYLQWDSLKASDTAMYYCVRQERGSNTWYAGNSWGQGTLVTVFS VL: EIVLTQSPLSLPVSPGEPASISCRSSQSLLHTDAYNYLDWYLQKPGQSPQLLIYLGSTRASGVPDRFSGSGSGTDFTLKISSVKAEDVGVYYCMQALQTPGTFGQGTKVEIR next? 1.22

Can you check EZ 4C-1 (antibody, V domains shown, source: HEK293T, transfected; culture supernatant or purified) VH: EVQLVESGPGLVKPSETLSLTCTVSGGSVSSGNNYWSWIRQPPGKALEWIGYIYYSGSTKYNPSLKSRVTMSVGTSKNQFSLKVNSVTAADTAMYYCARAPSAPFGGLFDWILPKGINNWGQGTLVTVSS VL: EIVLTQSPSTLSASVGDRVTITCRTSQSIRSWLAWYQQKPGKAPKLLIFEASTLESGVPERFSGSGSGAEFTLTISSLQPDDFATYYCQQYNGYSYSFGQGTKVEIR next? 0.6
